For each entry below, report its Kd value.
Target: T1, GST-human NOGO-A56 (human, UniProt P08515 1-218 = GST)
T1 construct: GST-tagged fusion expressed in E. coli BL21 and purified on glutathione-sepharose; coated on ELISA plates or amine-coupled to a CM5 chip; also called hNOGO; recombinant human NOGO
T1 sequence (P08515 1-218, tags or fused parts left off): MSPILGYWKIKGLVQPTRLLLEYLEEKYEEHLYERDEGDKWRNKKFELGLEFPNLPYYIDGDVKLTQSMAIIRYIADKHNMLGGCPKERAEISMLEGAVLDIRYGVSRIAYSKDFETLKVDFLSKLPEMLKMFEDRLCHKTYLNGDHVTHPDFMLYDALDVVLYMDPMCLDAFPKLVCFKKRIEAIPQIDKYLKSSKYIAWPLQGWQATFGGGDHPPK
Assay: SPR (Biacore 3000), GST-human NOGO-A56 on CM5, antibody as analyte; single experiment
Only the number, expressed in nM, is required.

# get_value(readout='Kd', item= H700L11 (antibody, human IgG1, kappa, V domains shown) VH: QVQLVQSGAEVKKPGASVKVSCKASGYTFTSYWMHWVRQAPGQGLEWIGNINPSNGGTNYNEKFKSRATLTVDKSTSTAYMELSSLRSEDTAVYYCELGQGYWGQGTLVTVSS VL: DIVITQSPLSLPVTLGQPASISCRSSKSLLYKDGKTYLNWFQQRPGQSPQLLIYLMSTRASGVPDRFSGGGSGTDFTLKISRVEAEDVGVYYCQQLVEYPLTFGQGTKLEIKR )
19.4

# get_value(readout='Kd', item= H6L6 (antibody, human IgG1, kappa, V domains shown) VH: QVQLVQSGAEVKKPGASVKVSCKASGYTFTSYWMHWVRQAPGQGLEWIGNINPSNGGTNYNEKFKSRATMTRDTSTSTAYMELSSLRSEDTAVYYCELGQGYWGQGTLVTVSS VL: DIVMTQSPLSLPVTPGEPASISCRSSKSLLYKDGKTYLNWFLQRPGQSPQLLIYLMSTRASGVPDRFSGSGSGTDFTLKISRVEAEDVGVYYCQQLVEYPLTFGGGTKVEIKR )
21.4
